Reference source for all entries: patent US20240025907A1

experimental-target: KRas^WT (Homo sapiens, UniProt P01116)
Construct: Biotinylated KRas (corresponding to amino acids 1-169, produced at Accelegan Inc.); biotin (biotinylated); purchased Accelegan Inc
Sequence (P01116 1-169 isoform P01116-2): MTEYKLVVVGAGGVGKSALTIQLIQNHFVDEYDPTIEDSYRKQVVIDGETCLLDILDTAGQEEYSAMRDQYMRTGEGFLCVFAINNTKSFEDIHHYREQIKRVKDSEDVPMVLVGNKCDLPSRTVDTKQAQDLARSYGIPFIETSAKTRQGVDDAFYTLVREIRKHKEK
protocol: KRas TR-FRET tracer displacement binding assay, WT
test-conditions: 60-minute incubation
The entries below come with measured IC50 values attached.
parameter: IC50 (nM)

• N#Cc1c(N)sc2c(F)ccc(-c3c(Cl)cc4c(NCCS(N)(=O)=O)nc(OC[C@@]56CCCN5C[C@H](F)C6)nc4c3F)c12 = 3
• N#Cc1c(N)sc2c(F)ccc(-c3c(Cl)cc4c(N5CCC5CO)nc(OC[C@@]56CCCN5C[C@H](F)C6)nc4c3F)c12 (some centres unmarked) = 2
• N#Cc1c(N)sc2c(F)ccc(-c3c(Cl)cc4c(N5CCCOC6CC65)nc(OC[C@@]56CCCN5C[C@H](F)C6)nc4c3F)c12 (single isomer, unassigned) [Example 212] = 6
• Cc1c(F)c(N)nc(-c2c(Cl)cc3c(NC(C)c4cccnc4N)nc(OC[C@@]45CCCN4C[C@H](F)C5)nc3c2F)c1C(F)(F)F (single isomer, unassigned; isomer 2) [Example 173] = 751
• CC1CN(C)CCCN1c1nc(N(C)C)c2cc(Cl)c(-c3ccc(F)c4sc(N)c(C#N)c34)c(F)c2n1 (centres unmarked) = 251
• C[C@@]1(O)COCCN(c2nc(OC[C@@]34CCCN3C[C@H](F)C4)nc3c(F)c(-c4ccc(F)c5sc(N)c(C#N)c45)c(F)cc23)C1 = 6
• CC(Oc1nc(N(C)C)c2cc(F)c(-c3ccc(F)c4sc(N)c(C#N)c34)c(F)c2n1)C12CCCN1CCC2 (single isomer, unassigned; isomer 2) [Example 178] = 17
• N#Cc1c(N)sc2c(F)ccc(-c3c(Cl)cc4c(N5CCCOC6CC65)nc(OC[C@@]56CCCN5C[C@H](F)C6)nc4c3F)c12 (single isomer, unassigned) [Example 213] = 11

====

Tested on: KRas-mediated Phosphorylation of ERK in A549 cells
protocol: Cisbio HTRF pERK assay, A549 cells
Assay type: cell-based
test-conditions: Homo sapiens, A549, 3 h, A549 cells, 3 hrs compound; read-out: Inhibition (HTRF IC50 nM) of KRas-mediated Phosphorylation of ERK, A549
parameter: IC50 (nM)

- N#Cc1c(N)sc2c(F)ccc(-c3c(Cl)cc4c(NC5CS(=O)(=O)C5)nc(OC[C@@]56CCCN5C[C@H](F)C6)nc4c3F)c12 [Example 218]: 720
- N#Cc1c(N)sc2c(F)ccc(-c3c(Cl)cc4c(N5C=C(CCO)CCCC5)nc(OC[C@@]56CCCN5C[C@H](F)C6)nc4c3F)c12 [Example 190]: 525
- C=Cc1cc2c(N3CCCn4nc(C(=O)N(C)C)cc4C3)nc(OC[C@@]34CCCN3C[C@H](F)C4)nc2c(F)c1-c1ccc(F)c2sc(N)c(C#N)c12 [Example 176]: 72
- CN(c1nc(OC[C@@]23CCCN2C[C@H](F)C3)nc2c(F)c(-c3ccc(F)c4sc(N)c(C#N)c34)c(Cl)cc12)[C@H]1C[C@@H]1F [Example 202]: 200
- N#Cc1c(N)sc2c(F)ccc(-c3c(C4CC4)cc4c(N5C[C@H]6CC[C@@H](C5)N6)nc(OC[C@@]56CCCN5C[C@H](F)C6)nc4c3F)c12 [Example 208]: 418
- N#Cc1c(N)sc2c(F)ccc(-c3c(Cl)cc4c(N5CC(O)C5)nc(OC[C@@]56CCCN5C[C@H](F)C6)nc4c3F)c12 [Example 219]: 3340
- N#Cc1c(N)sc2c(F)ccc(-c3c(Cl)cc4c(N5CCCn6nc(N)cc6C5)nc(OC[C@@]56CCCN5C[C@H](F)C6)nc4c3F)c12 [Example 187]: 106
- N#Cc1c(N)sc2c(F)ccc(-c3c(Cl)cc4c(N5CCCCCC5)nc(OC[C@@]56CCCN5C[C@H](F)C6)nc4c3F)c12 [Example 210]: 38
- N#Cc1c(N)sc2c(F)ccc(-c3c(Cl)cc4c(NCCO)nc(OC[C@@]56CCCN5C[C@H](F)C6)nc4c3F)c12 [Example 205]: 574
- C[C@@]1(O)CCCN(c2nc(OC[C@@]34CCCN3C[C@H](F)C4)nc3c(F)c(-c4ccc(F)c5sc(N)c(C#N)c45)c(F)cc23)C1 [Example 198]: 326
- CN(c1nc(OC[C@@]23CCCN2C[C@H](F)C3)nc2c(F)c(-c3ccc(F)c4sc(N)c(C#N)c34)c(Cl)cc12)C1CC1 [Example 203]: 307
- CN(C)C(=O)c1cc2n(n1)CCCN(c1nc(OC[C@@]34CCCN3C[C@H](F)C4)nc3c(F)c(-c4ccc(F)c5sc(N)c(C#N)c45)c(F)cc13)C2 [Example 215]: 393

====

System: KRas-mediated Phosphorylation of ERK in H727 cells
protocol: Cisbio HTRF pERK assay, H727 cells
Assay type: cell-based
test-conditions: Homo sapiens, NCI-H727, 3 h, 3 hrs compound, read-out: Inhibition (HTRF IC50 nM) of KRas-mediated Phosphorylation of ERK, H727
parameter: IC50 (nM)

* N#Cc1c(N)sc2c(F)ccc(-c3c(Cl)cc4c(N5CCCn6nc(N)cc6C5)nc(OC[C@@]56CCCN5C[C@H](F)C6)nc4c3F)c12 | 148
* N#Cc1c(N)sc2c(F)ccc(-c3c(Cl)cc4c(N5CCCOCC5)nc(OC[C@@]56CCCN5C[C@H](F)C6)nc4c3F)c12 | 12
* N#Cc1c(N)sc2c(F)ccc(-c3c(Cl)cc4c(N5CC(O)C5)nc(OC[C@@]56CCCN5C[C@H](F)C6)nc4c3F)c12 | 1070
* CN(C)C(=O)c1cc2n(n1)CCCN(c1nc(OC[C@@]34CCCN3C[C@H](F)C4)nc3c(F)c(-c4ccc(F)c5sc(N)c(C#N)c45)c(F)cc13)C2 | 35
* N#Cc1c(N)sc2c(F)ccc(-c3c(Cl)cc4c(N5CCCCC(F)C5)nc(OC[C@@]56CCCN5C[C@H](F)C6)nc4c3F)c12 (stereo partly drawn) | 18
* CN(C)C(=O)c1cc2n(n1)CCCN(c1nc(OC[C@@]34CCCN3C[C@H](F)C4)nc3c(F)c(-c4ccc(F)c5sc(N)c(C#N)c45)c(C4CC4)cc13)C2 | 11
* COc1nc(OC[C@@]23CCCN2C[C@H](F)C3)nc2c(F)c(-c3ccc(F)c4sc(N)c(C#N)c34)c(Cl)cc12 | 123
* CN(c1nc(OC[C@@]23CCCN2C[C@H](F)C3)nc2c(F)c(-c3ccc(F)c4sc(N)c(C#N)c34)c(Cl)cc12)C1CC1 | 226
* N#Cc1c(N)sc2c(F)ccc(-c3c(Cl)cc4c(N5CC(CO)C5)nc(OC[C@@]56CCCN5C[C@H](F)C6)nc4c3F)c12 | 1240
* N#Cc1c(N)sc2c(F)ccc(-c3c(Cl)cc4c(NCc5cn[nH]c5)nc(OC[C@@]56CCCN5C[C@H](F)C6)nc4c3F)c12 | 4090

====

The entries below come with measured IC50 values attached.
System: KRas-mediated Phosphorylation of ERK in A549 cells
protocol: Cisbio HTRF pERK assay, A549 cells
Format: cell-based
test-conditions: Homo sapiens, A549, 3 h, A549 cells, 3 hrs compound; read-out: Inhibition (HTRF IC50 nM) of KRas-mediated Phosphorylation of ERK, A549
parameter: IC50 (nM)

* N#Cc1c(N)sc2c(F)ccc(-c3c(Cl)cc4c(N5CC(CO)C5)nc(OC[C@@]56CCCN5C[C@H](F)C6)nc4c3F)c12 | 635
* N#Cc1c(N)sc2c(F)ccc(-c3c(Cl)cc4c(N5CCCOCC5)nc(OC[C@@]56CCCN5C[C@H](F)C6)nc4c3F)c12 | 15
* C[C@@]1(O)COCCN(c2nc(OC[C@@]34CCCN3C[C@H](F)C4)nc3c(F)c(-c4ccc(F)c5sc(N)c(C#N)c45)c(Cl)cc23)C1 (atropisomer, axis not shown; (aS)) | 8
* N#Cc1c(N)sc2c(F)ccc(-c3c(Cl)cc4c(N5CCC5)nc(OC[C@@]56CCCN5C[C@H](F)C6)nc4c3F)c12 | 244
* N#Cc1c(N)sc2c(F)ccc(-c3c(Cl)cc4c(NCc5cn[nH]c5)nc(OC[C@@]56CCCN5C[C@H](F)C6)nc4c3F)c12 | 1180
* COc1nc(OC[C@@]23CCCN2C[C@H](F)C3)nc2c(F)c(-c3ccc(F)c4sc(N)c(C#N)c34)c(Cl)cc12 | 261
* N#Cc1c(N)sc2c(F)ccc(-c3c(Cl)cc4c(N5CCCCC(=O)C5)nc(OC[C@@]56CCCN5C[C@H](F)C6)nc4c3F)c12 | 11
* CCc1c(F)ccc2cc(O)cc(-c3c(F)cc4c(NCc5c[nH]c6ncccc56)nc(OC[C@@]56CCCN5C[C@H](F)C6)nc4c3F)c12 | 734
* C[C@@]1(O)COCCN(c2nc(OC[C@@]34CCCN3C[C@H](F)C4)nc3c(F)c(-c4ccc(F)c5sc(N)c(C#N)c45)c(F)cc23)C1 | 325
